Molecular target: Aβ40 (Homo sapiens, UniProt P05067)
Sequence (P05067 672-711, species assumed): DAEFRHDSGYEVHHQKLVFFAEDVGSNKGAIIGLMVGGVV
Experiment: ThT Aβ aggregation assay (kinetic Thioflavin T fluorescence)
Type: biochemical
Settings: compound 10 μM; 20 μM Aβ; DMSO control at 80 hr = 0% inhibition; number in parenthesis = compound ID 1027 in that experiment; read-out: % inhib Thioflavin T Aβ 40 10 μM
recorded-metric: inhibition at 10 µM (%)
Report only the number, with the unit % understood.

>  <compound>
c1ccc(Oc2ccc(-c3cc(N4CC(CN5CCCC5)C4)c4nonc4c3)cc2)cc1 [compound 1491]

>  <inhibition at 10 µM [%]>
32

$$$$
>  <compound>
Clc1cccc(-c2cc(N3CC(CN4CCCC4)C3)c3nonc3c2)c1 [compound 1505]

>  <inhibition at 10 µM [%]>
62

$$$$
>  <compound>
COCCN1CCC=C(c2cc(N3CC(CN4CCCC4)C3)c3nonc3c2)C1 [compound 1523]

>  <inhibition at 10 µM [%]>
55

$$$$
>  <compound>
CS(=O)(=O)c1ccc(-c2cc(N3CC(CN4CCCC4)C3)c3nonc3c2)cc1 [compound 1501]

>  <inhibition at 10 µM [%]>
48

$$$$
>  <compound>
c1n[nH]cc1-c1cc(N2CC(CN3CCCC3)C2)c2nonc2c1 [compound 1526]

>  <inhibition at 10 µM [%]>
60

$$$$
>  <compound>
c1cncc(-c2cc(N3CC(CN4CCCC4)C3)c3nonc3c2)c1 [compound 1476]

>  <inhibition at 10 µM [%]>
36

$$$$

Okay, now this compound:
Record request: inhibition at 10 µM value, item CN1CC=C(c2cc(N3CC(CN4CCCC4)C3)c3nonc3c2)CC1 [compound 1517] 33
